biological target: T1, soluble HLA-A2 (…) tetramer (human); experiment: flow cytometry, HLA-A2 (…) tetramer staining of CHO cells transfected with the TCR
T1 construct: Bought tetramer reagent; also called MAGE-A4/HLA tetramer reagent; HLA-A02:01 MAGE-A4 tetramer
Rule: % in Ag+ gate >250 MFI, >1% below 20% gives 1. Equal to or above 20% gives -1.

Below 20% on % in Ag+ gate >250 MFI, >1%? Entry PN41550 (TCR, V domains shown, stained with anti-mouse TCR constant region H57-597; full-length chains on transfected CHO cells; also called TCR No. 10) V domain 1: QKEVEQNSGPLSVPEGAIASLNCTYSDRGSQSFFWYRQYSGKSPELIMSIYSNGDKEDGRFTAQLNKASQYVSLLIRDSQPSDSATYLCAVNLSWGKFQFGAGTQVVVTP V domain 2: DAGVTQSPTHLIKTRGQQVTLRCSPKSGHDTVSWYQQALGQGPQFIFQYYEEEERQRGNFPDRFSGHQFPNYSSELNVNALLLGDSALYLCASSLDRSTEAFFGQGTRLTVV
-1

Below 20% on % in Ag+ gate >250 MFI, >1%? Entry PN41805 (TCR, V domains shown, stained with anti-mouse TCR constant region H57-597; full-length chains on transfected CHO cells; also called TCR No. 30) V domain 1: AQTVTQSQPEMSVQEAETVTLSCTYDTSENNYYLFWYKQPPSRQMILVIRQEAYKQQNATENRFSVNFQKAAKSFSLKISDSQLGDTAMYFCAFGMYSGGGADGLTFGKGTHLIIQP V domain 2: AAGVIQSPRHLIKEKRETATLKCYPIPRHDTVYWYQQGPGQDPQFLISFYEKMQSDKGSIPDRFSAQQFSDYHSELNMSSLELGDSALYFCASSPTGTGDGYTFGSGTRLTVV
-1

hey, is % in Ag+ gate >250 MFI, >1% for PN41516 (TCR, V domains shown, stained with anti-mouse TCR constant region H57-597; full-length chains on transfected CHO cells; also called TCR No. 4) V domain 1: TQLLEQSPQFLSIQEGENLTVYCNSSSVFSSLQWYRQEPGEGPVLLVTVVTGGEVKKLKRLTFQFGDARKDSSLHITAAQPGDTGLYLCAGERDSWGKFQFGAGTQVVVTP V domain 2: NAGVTQTPKFRILKIGQSMTLQCAQDMNHNYMYWYRQDPGMGLKLIYYSVGAGITDKGEVPNGYNVSRSTTEYFPLRLELAAPSQTSVYFCASSFWTGGDEKLFFGSGTQLSVL lower than 20% or not?
1

Dear reviewer, please state whether PN41494 (TCR, V domains shown, stained with anti-mouse TCR constant region H57-597; full-length chains on transfected CHO cells; also called TCR No. 2) V domain 1: AQTVTQSQPEMSVQEAETVTLSCTYDTSESDYYLFWYKQPPSRQMILVIRQEAYKQQNATENRFSVNFQKAAKSFSLKISDSQLGDAAMYFCAYRSATGNQFYFGTGTSLTVIP V domain 2: DVKVTQSSRYLVKRTGEKVFLECVQDMDHENMFWYRQDPGLGLRLIYFSYDVKMKEKGDIPEGYSVSREKKERFSLILESASTNQTSMYLCASSLWGWNSPLHFGNGTRLTVT has % in Ag+ gate >250 MFI, >1% strictly beneath 20%.
1

API: query returns whether the binder falls strictly under 20% in % in Ag+ gate >250 MFI, >1%. Query: PN41656 (TCR, V domains shown, stained with anti-mouse TCR constant region H57-597; full-length chains on transfected CHO cells; also called TCR No. 23) V domain 1: AQKITQTQPGMFVQEKEAVTLDCTYDTSDPSYGLFWYKQPSSGEMIFLIYQGSYDQQNATEGRYSLNFQKARKSANLVISASQLGDSAMYFCAMRDLTTSGTYKYIFGTGTRLKVLA V domain 2: DVKVTQSSRYLVKRTGEKVFLECVQDMDHENMFWYRQDPGLGLRLIYFSYDVKMKEKGDIPEGYSVSREKKERFSLILESASTNQTSMYLCASSFGGWGYGYTFGSGTRLTVV
1

# strict comparison: is reported % in Ag+ gate >250 MFI, >1% < 20%? input = PN41617 (TCR, V domains shown, stained with anti-mouse TCR constant region H57-597; full-length chains on transfected CHO cells; also called TCR No. 20) V domain 1: AQTVTQSQPEMSVQEAETVTLSCTYDTSESDYYLFWYKQPPSRQMILVIRQEAYKQQNATENRFSVNFQKAAKSFSLKISDSQLGDAAMYFCAYRSASGNQFYFGTGTSLTVIP V domain 2: DVKVTQSSRYLVKRTGEKVFLECVQDMDHENMFWYRQDPGLGLRLIYFSYDVKMKEKGDIPEGYSVSREKKERFSLILESASTNQTSMYLCASSLWGMNTEAFFGQGTRLTVV
-1

Confirm or reject: % in Ag+ gate >250 MFI, >1% of PN41852 (TCR, V domains shown, stained with anti-mouse TCR constant region H57-597; full-length chains on transfected CHO cells; also called TCR No. 35) V domain 1: AQTVTQSQPEMSVQEAETVTLSCTYDTSESDYYLFWYKQPPSRQMILVIRQEAYKQQNATENRFSVNFQKAAKSFSLKISDSQLGDAAMYFCAYRSALGNDMRFGAGTRLTVKP V domain 2: DVKVTQSSRYLVKRTGEKVFLECVQDMDHENMFWYRQDPGLGLRLIYFSYDVKMKEKGDIPEGYSVSREKKERFSLILESASTNQTSMYLCASSLWALNTEAFFGQGTRLTVV lies strictly below 20%
1

Determine if PN41867 (TCR, V domains shown, stained with anti-mouse TCR constant region H57-597; full-length chains on transfected CHO cells; also called TCR No. 36) V domain 1: AQTVTQSQPEMSVQEAETVTLSCTYDTSENNYYLFWYKQPPSRQMILVIRQEAYKQQNATENRFSVNFQKAAKSFSLKISDSQLGDTAMYFCAFMKTQGGSEKLVFGKGTKLTVNP V domain 2: AAGVIQSPRHLIKEKRETATLKCYPIPRHDTVYWYQQGPGQDPQFLISFYEKMQSDKGSIPDRFSAQQFSDYHSELNMSSLELGDSALYFCASSLVGYGYTFGSGTRLTVV shows % in Ag+ gate >250 MFI, >1% strictly lower than 20%.
-1

Does this binder meet the criterion % in Ag+ gate >250 MFI, >1% < 20%? PN41654 (TCR, V domains shown, stained with anti-mouse TCR constant region H57-597; full-length chains on transfected CHO cells; also called TCR No. 22) V domain 1: GESVGLHLPTLSVQEGDNSIINCAYSNSASDYFIWYKQESGKGPQFIIDIRSNMDKRQGQRVTVLLNKTVKHLSLQIAATQPGDSAVYFCAEKRDNYGQNFVFGPGTRLSVLP V domain 2: DVKVTQSSRYLVKRTGEKVFLECVQDMDHENMFWYRQDPGLGLRLIYFSYDVKMKEKGDIPEGYSVSREKKERFSLILESASTNQTSMYLCASSLYSYGYTFGSGTRLTVV
-1

Problem: For the binder PN41712 (TCR, V domains shown, stained with anti-mouse TCR constant region H57-597; full-length chains on transfected CHO cells; also called TCR No. 27) V domain 1: AQTVTQSQPEMSVQEAETVTLSCTYDTSENNYYLFWYKQPPSRQMILVIRQEAYKQQNATENRFSVNFQKAAKSFSLKISDSQLGDTAMYFCALNTGNQFYFGTGTSLTVIP V domain 2: GAVVSQHPSWVICKSGTSVKIECRSLDFQATTMFWYRQFPKQSLMLMATSNEGSKATYEQGVEKDKFLINHASLTLSTLTVTSAHPEDSSFYICSAWDGFYGYTFGSGTRLTVV , is % in Ag+ gate >250 MFI, >1% under 20%?
-1
